molecular target: Fes (UniProt P07332); experiment: phosphorylation enrichment, bacterial display (enrichment ratio); higher = better substrate or ligand; peptides without Tyr show the background;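 note: 11-residue human phosphosite peptides and single-mutation variants displayed on the E. coli surface, counted by deep sequencing, each peptide's frequency after selection divided by its frequency in the unselected input library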;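 note: frequency after pTyr selection over input frequency; kinase dosed for 20-30% of maximal phosphorylation in three min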
Sequence (P07332 whole entry, looked up): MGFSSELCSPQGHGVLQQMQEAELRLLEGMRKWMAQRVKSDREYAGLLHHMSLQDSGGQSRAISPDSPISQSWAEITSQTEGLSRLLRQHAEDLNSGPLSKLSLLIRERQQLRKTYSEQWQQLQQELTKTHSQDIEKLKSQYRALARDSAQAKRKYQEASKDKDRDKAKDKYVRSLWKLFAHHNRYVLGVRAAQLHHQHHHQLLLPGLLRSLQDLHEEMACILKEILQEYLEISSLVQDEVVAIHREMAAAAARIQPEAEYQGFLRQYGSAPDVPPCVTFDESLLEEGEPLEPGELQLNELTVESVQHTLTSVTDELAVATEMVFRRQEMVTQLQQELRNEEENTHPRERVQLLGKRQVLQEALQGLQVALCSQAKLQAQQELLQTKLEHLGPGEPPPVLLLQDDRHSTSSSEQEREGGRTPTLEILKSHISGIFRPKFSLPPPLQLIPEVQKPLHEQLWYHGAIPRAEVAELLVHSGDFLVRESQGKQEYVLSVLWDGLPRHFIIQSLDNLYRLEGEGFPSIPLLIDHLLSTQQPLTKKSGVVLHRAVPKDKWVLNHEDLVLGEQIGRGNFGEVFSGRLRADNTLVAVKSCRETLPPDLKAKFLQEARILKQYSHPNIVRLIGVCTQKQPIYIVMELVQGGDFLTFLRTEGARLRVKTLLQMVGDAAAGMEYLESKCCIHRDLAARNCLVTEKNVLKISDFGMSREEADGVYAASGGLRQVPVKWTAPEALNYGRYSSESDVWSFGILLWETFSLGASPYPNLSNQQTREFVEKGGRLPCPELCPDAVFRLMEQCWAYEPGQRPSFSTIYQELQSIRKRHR
measured_property: phosphorylation enrichment
Give only the figure.

GMRHGYGVRQS [JPH2_Y141] ... 0.556
EALDFCGEVRT [PTEN_Y155_Y155C] ... 1.48
NMSRIYSTAKV [ACE_Y151] ... 0.563
QDEHGYISWCF [HSPB1_Y133_R136W] ... 2.34
TIQRMYGCDVG [HLA-A_Y123_I121R] ... 1.05

q: Identify measured phosphorylation enrichment obtained with Fes (UniProt P07332) for INQGPYENRSV [ATP6V1B1_Y462] .
a: 0.622

q: Identify measured phosphorylation enrichment obtained with Fes (UniProt P07332) for NTQRPHYKGGG [TYROBP_Y111_Y111H] .
a: 0.549

q: Identify measured phosphorylation enrichment obtained with Fes (UniProt P07332) for HTDDGYMPMSP [IRS1_Y612] .
a: 1.59

q: Identify measured phosphorylation enrichment obtained with Fes (UniProt P07332) for LKRIAYFLCLL [LGI1_Y21] .
a: 1.53

q: Identify measured phosphorylation enrichment obtained with Fes (UniProt P07332) for AERKLYSGAQT [ZAP70_Y178] .
a: 0.536

q: Identify measured phosphorylation enrichment obtained with Fes (UniProt P07332) for ARAHKYHGGGG [HBB_Y146_L142R] .
a: 0.443

q: Identify measured phosphorylation enrichment obtained with Fes (UniProt P07332) for IPGGIYDADLN [CST4_Y35] .
a: 1.32

q: Identify measured phosphorylation enrichment obtained with Fes (UniProt P07332) for QQMGTYGVRAA [ICAM2_Y260_R256Q] .
a: 0.579

q: Identify measured phosphorylation enrichment obtained with Fes (UniProt P07332) for KMATAYIRSMS [BCO1_Y264_R267S] .
a: 0.6
